# credit: patent US20170355757A1

Provide the reported 100 nM Human C5 Bound (RU) of each item.
Biological target: T1, Human C5 (human, UniProt P01031 19-1676)
T1 construct: The natural protein has a beta and an alpha chain; also called complement factor 5; complement component 5
Assay: SPR, mAb captured by anti-hFc, 37C
// units = RU; emit number, no label

Dear colleague, I am looking for the recorded 100 nM Human C5 Bound (RU) of the following binder: H4H12169P (antibody, human IgG4, V domains shown) VH: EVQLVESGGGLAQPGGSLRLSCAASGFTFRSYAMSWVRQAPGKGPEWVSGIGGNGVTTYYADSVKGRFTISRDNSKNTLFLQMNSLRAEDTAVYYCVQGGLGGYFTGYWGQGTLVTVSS VL: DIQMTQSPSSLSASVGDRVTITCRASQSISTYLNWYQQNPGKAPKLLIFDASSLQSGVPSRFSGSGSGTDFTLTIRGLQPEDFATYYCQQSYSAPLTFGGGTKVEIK 65

And the next one, H4H12166P4 (antibody, human IgG4, V domains shown, human IgG4 Fc with S108P hinge mutation) VH: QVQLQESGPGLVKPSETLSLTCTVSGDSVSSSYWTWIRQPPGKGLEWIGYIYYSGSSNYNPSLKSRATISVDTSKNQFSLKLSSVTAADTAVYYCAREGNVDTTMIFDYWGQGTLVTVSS VL: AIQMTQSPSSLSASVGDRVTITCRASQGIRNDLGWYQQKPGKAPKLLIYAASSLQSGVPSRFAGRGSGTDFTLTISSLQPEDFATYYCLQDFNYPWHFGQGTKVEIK ? 108
